FYI, the data here is from patent US11667602B2.

Each item that follows carries a reported EC50.
# assayed target: human RXFP1 (Homo sapiens, UniProt Q9HBX9)
# Sequence (Q9HBX9 whole entry): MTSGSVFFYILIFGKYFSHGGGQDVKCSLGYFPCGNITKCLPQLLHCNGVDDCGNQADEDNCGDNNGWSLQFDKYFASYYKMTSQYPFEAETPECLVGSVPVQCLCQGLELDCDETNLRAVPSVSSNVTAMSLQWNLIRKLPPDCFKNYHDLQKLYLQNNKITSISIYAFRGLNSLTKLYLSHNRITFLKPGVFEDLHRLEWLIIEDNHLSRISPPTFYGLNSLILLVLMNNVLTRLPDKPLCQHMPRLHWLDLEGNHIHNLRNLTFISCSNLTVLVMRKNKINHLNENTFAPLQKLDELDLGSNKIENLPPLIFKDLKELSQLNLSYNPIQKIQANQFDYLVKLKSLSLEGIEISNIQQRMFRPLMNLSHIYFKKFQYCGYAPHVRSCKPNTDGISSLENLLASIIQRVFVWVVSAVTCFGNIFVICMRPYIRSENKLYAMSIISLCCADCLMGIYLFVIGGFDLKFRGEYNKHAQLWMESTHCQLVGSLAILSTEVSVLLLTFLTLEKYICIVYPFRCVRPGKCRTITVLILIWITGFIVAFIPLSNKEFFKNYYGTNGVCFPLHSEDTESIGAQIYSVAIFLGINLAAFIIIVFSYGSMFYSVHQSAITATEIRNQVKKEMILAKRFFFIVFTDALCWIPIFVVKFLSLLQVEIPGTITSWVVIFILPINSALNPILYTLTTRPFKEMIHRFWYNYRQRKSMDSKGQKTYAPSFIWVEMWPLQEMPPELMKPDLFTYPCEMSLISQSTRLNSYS
# protocol text: RXFP1 Hu cAMP (Test A)
# Format: cell-based
# Parameters: expressed in transfected cells; host or cells: Jump-In T-REx CHO-K1 cells (ThermoFisher), induced with 10 ng/ml doxycycline for 24 h
# setup conditions: RXFP1 Hu cAMP; read-out: Test A EC50
Kindly answer with a numeric value in nM, unit omitted.

{"query smiles": "COc1cc(F)c(O[C@H]2CC[C@@](C)(C(=O)O)CC2)cc1C(=O)N[C@@H]1CCC[C@@H]1C(=O)NCC(C)(C)C", "measurement label": "EC50", "measured number": 660}
{"query smiles": "COc1cc(F)c(O[C@H]2CC[C@@](C)(C(=O)O)CC2)cc1C(=O)Nc1cc(Cl)ccc1C(=O)NCC1(C)CCC1", "measurement label": "EC50", "measured number": 8.4}

Prompt line: Requested read-out EC50, target or system human RXFP1 (Homo sapiens, UniProt Q9HBX9), entry COc1cc(C#N)c(O[C@H]2CC[C@@](C)(C(=O)O)CC2)cc1C(=O)N[C@@H]1[C@H]2CC[C@H](C2)[C@@H]1C(=O)NC(C)(C)C
Response line: 140

###

Each item that follows carries a reported EC50.
# assayed target: human RXFP1 (Homo sapiens, UniProt Q9HBX9)
# protocol text: RXFP1 Hu cAMP (Test A)
# Type: cell-based
# Parameters: expressed in transfected cells; host or cells: Jump-In T-REx CHO-K1 cells (ThermoFisher), induced with 10 ng/ml doxycycline for 24 h
# setup conditions: RXFP1 Hu cAMP; read-out: Test A EC50

Solved cases below.
{"compound": "COc1cc(F)c(O[C@H]2CC[C@@](C)(C(=O)O)CC2)cc1C(=O)Nc1cc(C)c(C)cc1C(=O)NCC1(C)CCC1", "measurement label": "EC50", "result": "310 nM"}
{"compound": "COc1cc(F)c(O[C@H]2CC[C@@](C)(C(=O)O)CC2)cc1C(=O)N[C@@H]1COC[C@@H]1C(=O)NCC(C)(C)C (racemic)", "measurement label": "EC50", "result": "> 40000 nM"}
{"compound": "COc1cc(F)c(O[C@H]2CC[C@@H](C(=O)O)CC2)cc1C(=O)N[C@@H]1[C@H]2CC[C@H](C2)[C@@H]1C(=O)Nc1cc(F)c(F)c(F)c1", "measurement label": "EC50", "result": "250 nM"}

Prompt line: Suppose we examine the compound COc1cc(F)c(-c2ccc(CCS(N)(=O)=O)cc2)cc1C(=O)N[C@H]1[C@H]2CC[C@H](C2)[C@H]1C(=O)Nc1cccc(S(=O)(=O)C(F)(F)F)c1 (single isomer, unassigned) [Example 326] ; what EC50 value has been reported?
Response line: 110 nM

Prompt line: Suppose we examine the compound COc1cc(C#N)c(O[C@H]2CC[C@@](C)(C(=O)O)CC2)cc1C(=O)Nc1cc(Cl)ccc1C(=O)NCC1(c2ccccc2)CC1 ; what EC50 value has been reported?
Response line: 110 nM

Prompt line: Suppose we examine the compound COc1cc(F)c(O[C@H]2CC[C@@H](C(=O)O)CC2)cc1C(=O)N[C@@H]1[C@H]2CC[C@H](C2)[C@@H]1C(=O)Nc1cccc(C(F)F)c1 ; what EC50 value has been reported?
Response line: 500 nM

Prompt line: Suppose we examine the compound COc1cc(F)c(O[C@H]2CC[C@@H](NS(C)(=O)=O)CC2)cc1C(=O)N[C@@H]1[C@H]2CC[C@H](C2)[C@@H]1C(=O)Nc1cccc(S(=O)(=O)C(F)(F)F)c1 ; what EC50 value has been reported?
Response line: 320 nM

Prompt line: Suppose we examine the compound COc1cc(C#N)c(O[C@H]2CC[C@@](C)(C(=O)O)CC2)cc1C(=O)Nc1cc(C)ccc1C(=O)NCC1(C)CC1 ; what EC50 value has been reported?
Response line: 110 nM

Prompt line: Suppose we examine the compound COc1cc(F)c(O[C@H]2CC[C@@](C)(C(N)=O)CC2)cc1C(=O)N[C@@H]1[C@H]2CC[C@H](C2)[C@@H]1C(=O)NCC1(F)CCOCC1 ; what EC50 value has been reported?
Response line: > 4200 nM

###

Each item that follows carries a reported Test A Sinf.
# assayed target: human RXFP1 (Homo sapiens, UniProt Q9HBX9)
# protocol text: RXFP1 Hu cAMP (Test A)
# Assay type: cell-based
# Design: expressed in transfected cells; host or cells: Jump-In T-REx CHO-K1 cells (ThermoFisher), induced with 10 ng/ml doxycycline for 24 h
# setup conditions: RXFP1 Hu cAMP
Kindly answer with a numeric value in %, unit omitted.

Solved cases below.
{"molecule": "COc1cc(C#N)c(O[C@H]2CC[C@@](C)(C(=O)O)CC2)cc1C(=O)N[C@@H]1[C@H]2CC[C@H](C2)[C@@H]1C(=O)NCc1cc(C)ccc1C", "Test A Sinf [%]": 102}
{"molecule": "COc1cc(C#N)c(O[C@H]2CC[C@@](C)(C(=O)O)CC2)cc1C(=O)N[C@@H]1[C@H]2CC[C@H](C2)[C@@H]1C(=O)NCc1cccc(C)c1", "Test A Sinf [%]": 94}

Let us move to another entry and its Test A Sinf.
Prompt line: Suppose we examine the molecule COc1cc(F)c(O[C@H]2CC[C@@](C)(C(=O)O)CC2)cc1C(=O)N[C@@H]1COC[C@@H]1C(=O)Nc1ccc(F)c(S(F)(F)(F)(F)F)c1 (racemic) ; what Test A Sinf value has been reported?
Response line: 93

###

# protocol text: Rat Hepatocyte Stability (Test E)
# Format: in vitro ADME
# setup conditions: rat, hepatocytes, geometric mean if run multiple times
measurement label: hepatocyte CLint
Write the numeric value and follow it with the unit.

{"compound": "COc1cc(C#N)c(O[C@H]2CC[C@@](C)(C(=O)O)CC2)cc1C(=O)N[C@@H]1[C@@H]2CC[C@@H](C2)[C@@H]1C(=O)NCC(C)(C)C [Example 389]", "hepatocyte CLint": "11 µL/min/1e6 cells"}

Prompt line: Suppose we examine the compound COc1cc(F)c(O[C@H]2CC[C@@](C)(C(=O)O)CC2)cc1C(=O)N[C@@H]1[C@H]2CC[C@H](C2)[C@@H]1C(=O)NCC(C)(C)C#N [Example 47] ; what hepatocyte CLint value has been reported?
Response line: 17 µL/min/1e6 cells

Prompt line: Suppose we examine the compound CC1(CNC(=O)[C@H]2[C@H]3CC[C@H](C3)[C@H]2NC(=O)c2cc(O[C@H]3CC[C@@](C)(C(=O)O)CC3)c(C#N)cc2F)CCC1 [Example 413] ; what hepatocyte CLint value has been reported?
Response line: 21 µL/min/1e6 cells

Prompt line: Suppose we examine the compound COc1cc(C#N)c(O[C@H]2CC[C@@](C)(C(=O)O)CC2)cc1C(=O)N[C@@H]1[C@H]2CC[C@H](C2)[C@@H]1C(=O)NCC1(O)CCCC1 [Example 74] ; what hepatocyte CLint value has been reported?
Response line: 10 µL/min/1e6 cells

Prompt line: Suppose we examine the compound COc1cc(F)c(-c2ccc(CCS(N)(=O)=O)cc2)cc1C(=O)N[C@H]1[C@H]2CC[C@H](C2)[C@H]1C(=O)Nc1cccc(S(=O)(=O)C(F)(F)F)c1 (single isomer, unassigned) [Example 326] ; what hepatocyte CLint value has been reported?
Response line: 4.6 µL/min/1e6 cells

Prompt line: Suppose we examine the compound COc1cc(F)c(O[C@H]2CC[C@@](C)(C(=O)O)CC2)cc1C(=O)N[C@H]1[C@@H](C(=O)NCC2(C)CCC2)[C@@H]2C=C[C@H]1C2 [Example 417] ; what hepatocyte CLint value has been reported?
Response line: 17 µL/min/1e6 cells

Prompt line: Suppose we examine the compound COc1cc(F)c(O[C@H]2CC[C@@](CO)(C(=O)O)CC2)cc1C(=O)N[C@@H]1[C@H]2CC[C@H](C2)[C@@H]1C(=O)NCC1(C)CCC1 [Example 364] ; what hepatocyte CLint value has been reported?
Response line: 19 µL/min/1e6 cells

Prompt line: Suppose we examine the compound COc1cc(F)c(O[C@H]2CC[C@@H](C(=O)O)CC2)cc1C(=O)N[C@@H]1[C@H]2CC[C@H](C2)[C@@H]1C(=O)Nc1cccc(S(F)(F)(F)(F)F)c1 [Example 182] ; what hepatocyte CLint value has been reported?
Response line: 35 µL/min/1e6 cells

Prompt line: Suppose we examine the compound COc1cc(F)c(O[C@H]2CC[C@@H](C(=O)O)CC2)cc1C(=O)N[C@@H]1[C@H]2CC[C@H](C2)[C@@H]1C(=O)Nc1ccc(C(F)F)cc1 [Example 181] ; what hepatocyte CLint value has been reported?
Response line: 48 µL/min/1e6 cells

Prompt line: Suppose we examine the compound COc1cc(F)c(O[C@H]2CC[C@@H](C(=O)O)CC2)cc1C(=O)N[C@@H]1[C@H]2CC[C@H](C2)[C@@H]1C(=O)Nc1ccc(S(=O)(=O)C(F)(F)F)cc1 [Example 15] ; what hepatocyte CLint value has been reported?
Response line: 13 µL/min/1e6 cells

Prompt line: Suppose we examine the compound COc1cc(C#N)c(O[C@H]2CC[C@@](C)(C(=O)O)CC2)cc1C(=O)N[C@@H]1CCC[C@@H]1C(=O)NCC1(C)CCC1 [Example 360] ; what hepatocyte CLint value has been reported?
Response line: 17 µL/min/1e6 cells
